Test system: MDA-MB-231 breast
assay_notes: NCI tumour cell line growth inhibition, 48 h; in the data active means GI50 below about 0.43 µM; inactive means the rest
Hi! Could you answer with just one of these? label 1 (active), label 0 (inactive)

Hi team, can someone confirm the assay call for c1cc(C2CCCCC2)ccc1OCCCCCCN1CCNCC1 ?
label 0

Hi team, can someone confirm the assay call for CCN(CC)CCOc1ccc(Nc2ncc3cc(-c4c(Cl)cccc4Cl)c(=O)n(CCOC)c3n2)cc1 ?
label 1

Hello, I am checking results. What call was entered for Nc1nc2c(c3ncccc13)C(c1ccc(Cl)c(Cl)c1)Cc1ncccc1-2 (stereo unspecified) ?
label 0

Which outcome was assigned to CCCCCCCCCCCCCC[P+](CCCCCC)(CCCCCC)CCCCCC in this test?
label 1

Outcome logged for O=C(Nc1ncc(Cc2ccccc2)s1)c1ccc2c(c1)OCCCO2 in this assay:
label 0

Recorded test outcome, item COc1cc([C@@H]2c3cc4c(cc3C(Br)[C@H]3COC(=O)[C@H]23)OCO4)cc(OC)c1OC (stereo partly specified)
label 1

Called result for C[C@]12CC/C(=N\N)C[C@@H]1CC[C@@H]1[C@@H]2CC[C@]2(C)/C(=N/N)CC[C@@H]12
label 0

Write down the call the test reported for this compound. Item: COc1ccc(-c2nsc3c2NC(=O)CC3c2ccc3c(c2)OCO3)cc1 (stereo unspecified)
label 0

What did the test return for CN(C)c1ccc(C(=O)c2ccc(N(C)C)c(N)c2)cc1N ?
label 0

Outcome? C[C@@H]1COCCN1c1nc(-c2cnc(N)cc2C(F)F)nc(N2[C@H](C)COC[C@@H]2C)n1
label 1

Please share the test call associated with COc1ccc(Nc2ncccc2/C=C/C(=O)c2cc(OC)c(OC)c(OC)c2)cc1 .
label 0

---

Please provide measured TGI for the entries that follow.
System: M14 melanoma
assay_notes: NCI tumour cell line growth inhibition, 48 h
Just the number in µM, nothing appended.

Please list TGI recorded for the compound COc1cc2c(cc1OCCCOC1=C=C=C(c3ccc4c(c3)c3cc(-c5ccc(OCCCOc6cc7c(cc6OC)C(=O)N6CCC[C@H]6C=N7)cc5)ccc3n4S(=O)(=O)c3ccc(C)cc3)C=C1)N=C[C@@H]1CCCN1C2=O
6.93

Please indicate TGI recorded for O=C(Nc1ccc(Cl)cc1)c1cc2c(cc1O)[nH]c1ccccc12
10.4

Identify TGI associated with the compound CC1CCC2(NC1)OC1CC3[C@@H]4CC=C5C=CCC[C@]5(C)C4CC[C@]3(C)C1C2C (some centres undefined)
50.9

Item CSc1ccc(-c2cc(-c3ccc(NC(=O)CCCN4CCCC4)cc3)nc(-c3ccc(NC(=O)CCCN4CCCC4)cc3)c2)cc1 : provide TGI
17.4

Quickly give me recorded TGI for Cc1[nH]c(C(=O)Nc2ccc(C(=O)N3CCNCC3)cc2OC(C)C)c(Cl)c1Cl
3.57

---

System: SK-MEL-5 melanoma
assay_notes: NCI tumour cell line growth inhibition, 48 h; in the data active = GI50 below about 0.43 µM; inactive = the rest
Classes to choose from: true (1) (active), false (0) (inactive)

Which outcome was entered for the compound COc1cc(C(=O)/C=C/c2c(-c3ccc(F)cc3)nc3sc(C)cn23)cc(OC)c1OC in this test?
false (0)

What outcome does the record of this test show for CC1=C(C(=O)Nc2ccc3[nH]ncc3c2)C(c2ccc(F)cc2)NC(=O)N1 (configuration not stated) ?
false (0)

Lab log entry: CCOC(=O)c1c2c(n3ccc(NC(=O)OC(C)(C)C)cc13)C(=O)c1ncccc1C2=O — outcome as called in the assay?
true (1)

Would you mind telling me which call this test gave CNC(=O)c1c(NC(=O)c2cccc(C(F)(F)F)c2)sc2c1CCC(=O)C2 ?
false (0)

GET /call?item= O=C(Nc1ccc(Cl)cc1)c1cc2c(cc1O)[nH]c1ccccc12 returns the recorded outcome of this test.
false (0)

Would you mind telling me which call this test gave CN(C)c1ccc(C(=O)c2ccc(N(C)C)c(N)c2)cc1N ?
false (0)

Hey, what did the test say about CCCCCCCCCCCCCCCC(=O)OCC1OC(n2cnc3c(=S)nc(N)[nH]c32)C(OC(=O)CCCCCCCCCCCCCCC)C1OC(=O)CCCCCCCCCCCCCCC (configuration not stated) ?
false (0)

---

System: MOLT-4 leukemia
assay_notes: NCI tumour cell line growth inhibition, 48 h; in the data active = GI50 below about 0.43 µM; inactive = the rest
Give your call using only these classes: T = active, F = inactive

So what was the verdict on CC1=C(C(=O)Nc2ccc3[nH]ncc3c2)C(c2ccc(F)cc2)NC(=O)N1 (centres undefined) in this test?
F

Dear colleague, could you share the recorded outcome for Nc1c(C(=O)c2cccc(-c3ccc[n+]([O-])c3)c2)cnn1-c1ccc(F)cc1F when you have a moment?
F

What did the test return for CN(C)C(=S)NN=C(c1ccccn1)c1ccccn1 ?
T

Write down the call the test reported for this compound. Item: COc1ccc(C2=CC(c3cc(OC)c(OC)c(OC)c3)NC(=O)N2)cc1OC (centres undefined)
F

Give the logged outcome of this assay for the following compound: COc1cc([C@@H]2c3cc4c(cc3C(Br)[C@H]3COC(=O)[C@H]23)OCO4)cc(OC)c1OC (some centres undefined)
F

Tell me the recorded outcome of this test for N#Cc1c2ccccc2c2n1-c1ccccc1OC(c1ccccc1)C2=O (centres undefined) .
F

Please state the recorded outcome for this compound: CN(C)c1ccc(C(=O)c2ccc(N(C)C)c(N)c2)cc1N
F

Dear all, I need the recorded test outcome for COc1cc(N=Nc2ccccc2)cc(/C=N\[N-]C(N)=S)c1[O-].COc1cc(N=Nc2ccccc2)cc(/C=N\[N-]C(N)=S)c1[O-].[Fe+4] , thank you.
F

Would you mind telling me which call this test gave O=S(=O)([O-])[O-].[Cl-].[NH2-].[NH2-].[NH2-].[NH2-].[Ru+3].c1ccc(-c2cccnc2)cc1 ?
F

For COc1cc(C(=O)/C=C/c2c(-c3ccc(F)cc3)nc3sc(C)cn23)cc(OC)c1OC , which call appears in the assay record?
F

Could you check what this test reported for Cc1ccc2c[c]1[Hg][CH2]COS2(=O)=O ?
F

Identify the outcome logged in this assay for the compound shown: N#Cc1cccc(C(=O)c2cnn(-c3ccc(F)cc3)c2N)c1
F

How did this test come out for OCc1cccc(-c2ccc3ncc(-c4nc(NC5CC5)ncc4F)n3c2)c1 ?
T

What was the test verdict on CCCCCCCCCCCCCC[P+](CCCCCC)(CCCCCC)CCCCCC ?
T

Hey, what did the test say about CCOC(=O)c1c2c(n3ccc(NC(=O)OC(C)(C)C)cc13)C(=O)c1ncccc1C2=O ?
F

Entry CNc1nc(C)c(-c2nc(Nc3cccc(S(N)(=O)=O)c3)ncc2F)s1 : call = ?
T

Identify the outcome logged in this assay for the compound shown: CCCCCCOc1ccc(/C=N/NC(N)=S)cc1
F

Can you look up the reported call for Fc1ccc(C2CC(c3cccc(Nc4ccncc4)c3)=NN2c2cc(Cl)cc(Cl)c2)cc1 (centres undefined) for me?
F

Hi team, can someone confirm the assay call for Cc1[nH]c(C(=O)Nc2ccc(C(=O)N3CCNCC3)cc2OC(C)C)c(Cl)c1Cl ?
F

---

Test system: SF-539 CNS
assay_notes: NCI tumour cell line growth inhibition, 48 h; in the data active means GI50 below about 0.43 µM; inactive means the rest
Output constraint: value belongs to T (active), F (inactive)

How was Nc1nc2c(c3ncccc13)C(c1ccc(Cl)c(Cl)c1)Cc1ncccc1-2 (stereo not given) classified in this test?
F

Identify the outcome logged in this assay for the molecule shown: CCCCCCOc1ccc(/C=N/NC(N)=S)cc1
F

Call for entry Nc1ccccc1NC(=O)CCCCCCC(=O)Nc1ccc2c(c1)/C(=C/c1ccc[nH]1)C(=O)N2 :
F

# lookup: test call for CCOC(=O)c1c2c(n3ccc(NC(=O)OC(C)(C)C)cc13)C(=O)c1ncccc1C2=O
T

Please indicate how the test categorized CN(C)c1ccc(C(=O)c2ccc(N(C)C)c(N)c2)cc1N .
F

// param item: Nc1ccc(N=Nc2ccccc2)c(N)n1 ; yields the recorded call
F

How did this test come out for CCc1ccc(-c2ccc(=O)n(-c3ccc(S(N)(=O)=O)cc3)n2)cc1 ?
F

What was the test verdict on c1cc(C2CCCCC2)ccc1OCCCCCCN1CCNCC1 ?
F

Hi team, can someone confirm the assay call for C[C@]12CC/C(=N\N)C[C@@H]1CC[C@@H]1[C@@H]2CC[C@]2(C)/C(=N/N)CC[C@@H]12 ?
F

For CNC(=O)c1c(NC(=O)c2cccc(C(F)(F)F)c2)sc2c1CCC(=O)C2 , what call appears in the results of this test?
T

What call does the record list for Cc1nc2cncc(C#Cc3cncc(C(=O)Nc4ccc(CN5CCN(C)CC5)c(C(F)(F)F)c4)c3)c2nc1C ?
T

Short answer needed: outcome of this test for CN(C)/C=C/c1nnnn1-c1ccc(Cl)cc1 ?
F

Test call for this molecule, please: Fc1ccc(C2CC(c3cccc(Nc4ccncc4)c3)=NN2c2cc(Cl)cc(Cl)c2)cc1 (stereo not given)
F

What is the recorded call for this molecule in the test? Nc1c(C(=O)c2cccc(-c3ccc[n+]([O-])c3)c2)cnn1-c1ccc(F)cc1F
F

In this assay, the call recorded for NC(N)=N/N=C/c1c(-c2cccs2)nc2sccn12 was what?
F
